Data provenance: patent US20250326715A1

So I've got IC50 readings for Cathepsin B (Homo sapiens, UniProt P07858), take a look.

Value lookup for IC50; key = CCOC(=O)C=CC(CC1CCNC1=O)NC(=O)C(Cc1ccccc1)NC(=O)C(Cc1ccccc1)NC(=O)OC(C)(C)C (stereo not drawn)
> 50 µM

Now this one: C#CCOCCC(=O)NC(Cc1ccccc1)C(=O)NC(Cc1ccccc1)C(=O)NC(C=CC(=O)OCC)CC1CCNC1=O (stereo not drawn)
> 50 µM

Now this one: C#CCOCCC(=O)NC(Cc1ccc(F)cc1)C(=O)NC(Cc1ccccc1)C(=O)NC(C=CC(=O)OCC)CC1CCNC1=O (stereo not drawn)
> 50 µM

Now this one: CCOC(=O)C=CC(CC1CCNC1=O)NC(=O)C(Cc1ccccc1)NC(=O)C(N)Cc1ccc(F)cc1 (stereo not drawn)
> 50 µM

Now this one: CCOC(=O)C=CC(CC1CCNC1=O)NC(=O)C(Cc1ccccc1)NC(=O)C(Cc1ccc(F)cc1)NC(=O)OC(C)(C)C (stereo not drawn)
40 µM

Now this one: CCOC(=O)C=CC(CC1CCNC1=O)NC(=O)C(Cc1ccccc1)NC(=O)C(N)Cc1ccccc1 (stereo not drawn)
> 50 µM

----------
- measured target: SARS-CoV-2 PL^Pro (Severe acute respiratory syndrome coronavirus 2, UniProt P0DTD1)
- method: Determination of IC50 values for SARS-CoV-2 PL^Pro (Z-RLRGG-AMC substrate)
- Type: biochemical
measured metric: IC50

Request - read-out IC50 | tested on SARS-CoV-2 PL^Pro (Severe acute respiratory syndrome coronavirus 2, UniProt P0DTD1) | compound CCOC(=O)C=CC(CC1CCNC1=O)NC(=O)C(Cc1ccccc1)NC(=O)C(N)Cc1ccccc1 (stereo not shown)
> 50 µM

----------
- measured target: SARS-CoV-2 M^Pro (Severe acute respiratory syndrome coronavirus 2, UniProt P0DTD1)
- method: Determination of IC50 values for SARS-CoV-2 M^Pro (fluorogenic peptide substrate, end-point)
- Format: biochemical
- conditions used: 12.5 nM M^Pro, 20 min preincubation, 30 μM substrate; read-out: M^Pro IC50
pIC50: −log10 of the molar value. Where a SMILES comes first, the peptide text is derived from it.
Outcome: Y for pIC50 of at least 6; N for anything lower.

Does CCOC(=O)C=CC(CC1CCNC1=O)NC(=O)C(Cc1ccc(F)cc1)NC(=O)C(Cc1ccccc1)NC(=O)OC(C)(C)C (stereo not shown) [SM136] have a reported pIC50 of at least 6?
N

Now this one: N=C(N)NCCC[C@H](NC(=O)[C@H](Cc1ccccc1)NC(=O)[C@H](N)Cc1ccccc1)C(=O)CCl [D-FFR-CMK] (HELM PEPTIDE1{[dF].F.R.[ClC[*:1]]}$$$$V2.0)
Y

Now this one: CCOC(=O)C=CC(CC1CCNC1=O)NC(=O)C(Cc1ccc(F)cc1)NC(=O)C(N)Cc1ccccc1 (stereo not shown) [SM137]
N

Now this one: CCOC(=O)C=CC(CC1CCNC1=O)NC(=O)C(Cc1ccccc1)NC(=O)C(Cc1ccccc1)NC(=O)OC(C)(C)C (stereo not shown) [SM140]
N

Now this one: CCOC(=O)C=CC(CC1CCNC1=O)NC(=O)C(Cc1ccccc1)NC(=O)C(Cc1ccc(F)cc1)NC(=O)OC(C)(C)C (stereo not shown) [SM142]
N

Now this one: NC(=O)NCCC[C@H](NC(=O)[C@H](Cc1ccccc1)NC(=O)[C@H](N)Cc1ccccc1)C(=O)CCl [D-FFCit-CMK] (HELM PEPTIDE1{[dF].F.[Cit].[ClC[*:1]]}$$$$V2.0)
Y

Now this one: CCOC(=O)C=CC(CC1CCNC1=O)NC(=O)C(Cc1ccc(F)cc1)NC(=O)C(N)Cc1ccc(F)cc1 (stereo not shown) [SM139]
N

----------
- measured target: SARS-CoV-2 M^Pro (Severe acute respiratory syndrome coronavirus 2, UniProt P0DTD1)
- method: Determination of KI values for SARS-CoV-2 M^Pro (initial velocity, competitive inhibition)
- Format: biochemical
- conditions used: competitive inhibition, initial velocity; read-out: M^Pro Ki
Give pKi for every item shown.
Just so you know, pKi here is -log10 of the concentration in molar units; reply with that number alone.

Value lookup for pKi; key = CCOC(=O)C=CC(CC1CCNC1=O)NC(=O)C(Cc1ccc(F)cc1)NC(=O)C(N)Cc1ccccc1 (centres unmarked)
4.30

Now this one: C#CCOCCC(=O)NC(Cc1ccc(F)cc1)C(=O)NC(Cc1ccccc1)C(=O)NC(C=CC(=O)OCC)CC1CCNC1=O (centres unmarked)
5.35

Now this one: CCOC(=O)C=CC(CC1CCNC1=O)NC(=O)C(Cc1ccccc1)NC(=O)C(N)Cc1ccc(F)cc1 (centres unmarked)
5.15

Now this one: CCOC(=O)C=CC(CC1CCNC1=O)NC(=O)C(Cc1ccc(F)cc1)NC(=O)C(N)Cc1ccc(F)cc1 (centres unmarked)
4.19

Now this one: CCOC(=O)C=CC(CC1CCNC1=O)NC(=O)C(Cc1ccccc1)NC(=O)C(Cc1ccccc1)NC(=O)OC(C)(C)C (centres unmarked)
4.80

Now this one: CCOC(=O)C=CC(CC1CCNC1=O)NC(=O)C(Cc1ccccc1)NC(=O)C(Cc1ccc(F)cc1)NC(=O)OC(C)(C)C (centres unmarked)
5.00

Now this one: C#CCOCCC(=O)NC(Cc1ccccc1)C(=O)NC(Cc1ccccc1)C(=O)NC(C=CC(=O)OCC)CC1CCNC1=O (centres unmarked)
5.28

Now this one: CCOC(=O)C=CC(CC1CCNC1=O)NC(=O)C(Cc1ccc(F)cc1)NC(=O)C(Cc1ccccc1)NC(=O)OC(C)(C)C (centres unmarked)
4.14

----------
- method: in vivo
- conditions used: male, C57Bl/6, mouse, iv
measured metric: Tmax

Value lookup for Tmax; key = CCOC(=O)C=CC(CC1CCNC1=O)NC(=O)C(Cc1ccccc1)NC(=O)C(N)Cc1ccccc1 (stereo not shown)
4.8 min

----------
- method: Pharmacokinetic parameters in mice (plasma, LC-MS/MS)
- conditions used: male, C57Bl/6, mouse, plasma, po, 10 mg/kg
measured metric: Cmax (nM)
Enter your answer as a number in nM; do not include the unit.

Value lookup for Cmax; key = CCOC(=O)C=CC(CC1CCNC1=O)NC(=O)C(Cc1ccccc1)NC(=O)C(Cc1ccc(F)cc1)NC(=O)OC(C)(C)C (stereo not shown) [SM142]
600

----------
Give kinact/KI for every item shown.
- measured target: Cathepsin L (Homo sapiens, UniProt P07711)
- Construct: purchased Abcam ab197012
- Sequence (P07711 114-333): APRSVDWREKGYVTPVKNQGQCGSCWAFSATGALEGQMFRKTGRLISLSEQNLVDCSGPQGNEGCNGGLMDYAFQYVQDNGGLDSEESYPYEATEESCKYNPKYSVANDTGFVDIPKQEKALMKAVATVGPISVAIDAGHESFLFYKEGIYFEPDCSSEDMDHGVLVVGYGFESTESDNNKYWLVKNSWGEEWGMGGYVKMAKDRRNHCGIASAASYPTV
- method: Cathepsin L inhibition assay kit (Abcam), IC50 and kinact/KI
- Format: biochemical
- conditions used: read-out: Cathepsin L kinact/KI
Enter your answer as a number in M⁻¹ s⁻¹; do not include the unit.

Value lookup for kinact/KI; key = CCOC(=O)C=CC(CC1CCNC1=O)NC(=O)C(Cc1ccccc1)NC(=O)C(Cc1ccc(F)cc1)NC(=O)OC(C)(C)C (stereo not shown) [SM142]
1830

Now this one: C#CCOCCC(=O)NC(Cc1ccc(F)cc1)C(=O)NC(Cc1ccccc1)C(=O)NC(C=CC(=O)OCC)CC1CCNC1=O (stereo not shown) [SM144]
1000

Now this one: C#CCOCCC(=O)NC(Cc1ccccc1)C(=O)NC(Cc1ccccc1)C(=O)NC(C=CC(=O)OCC)CC1CCNC1=O (stereo not shown) [SM145]
417

Now this one: CCOC(=O)C=CC(CC1CCNC1=O)NC(=O)C(Cc1ccccc1)NC(=O)C(N)Cc1ccc(F)cc1 (stereo not shown) [SM143]
2330

----------
- measured target: SARS-CoV-2 M^Pro (Severe acute respiratory syndrome coronavirus 2, UniProt P0DTD1)
- method: Determination of KI values for SARS-CoV-2 M^Pro (initial velocity, competitive inhibition)
- Assay type: biochemical
measured metric: Ki
Remember to follow the number with its unit.

Value lookup for Ki; key = CCOC(=O)C=CC(CC1CCNC1=O)NC(=O)C(Cc1ccccc1)NC(=O)C(N)Cc1ccccc1 (stereo not shown)
9 µM

----------
- method: Pharmacokinetic parameters in mice (plasma, LC-MS/MS)
- conditions used: male, C57Bl/6, mouse, plasma, iv, 3 mg/kg
measured metric: Cmax (nM)
Enter your answer as a number in nM; do not include the unit.

Value lookup for Cmax; key = CCOC(=O)C=CC(CC1CCNC1=O)NC(=O)C(Cc1ccccc1)NC(=O)C(Cc1ccc(F)cc1)NC(=O)OC(C)(C)C (stereo not shown)
400

----------
- method: Pharmacokinetic parameters in mice (plasma, LC-MS/MS)
- conditions used: male, C57Bl/6, mouse, plasma, iv, 3 mg/kg
measured metric: MRT inf (h)
Enter your answer as a number in h; do not include the unit.

Value lookup for MRT inf; key = CCOC(=O)C=CC(CC1CCNC1=O)NC(=O)C(Cc1ccccc1)NC(=O)C(Cc1ccc(F)cc1)NC(=O)OC(C)(C)C (stereo not shown)
1.9

----------
- method: Pharmacokinetic parameters in mice (plasma, LC-MS/MS)
- conditions used: male, C57Bl/6, mouse, plasma, iv, 3 mg/kg
measured metric: half-life (h)
Enter your answer as a number in h; do not include the unit.

Value lookup for half-life; key = CCOC(=O)C=CC(CC1CCNC1=O)NC(=O)C(Cc1ccccc1)NC(=O)C(Cc1ccc(F)cc1)NC(=O)OC(C)(C)C (stereo not shown)
2.1
